biological target: Cyclooxygenase 2 (COX2) (Homo sapiens); construct: purchased BPS Bioscience; assay: Enzymatic assay, COX2; type: biochemical
Where a name gives a salt, the structure may show the parent alone.
PROPERTY_MEASURED: IC50

1) CNC(C)C(=O)c1c[nH]c2ccc(F)cc12 (stereo not drawn) [BK-5F-NM-AMT, hydrochloride]    > 10 µM
2) CNC(C)C(=O)c1c[nH]c2ccc(Cl)cc12 (stereo not drawn) [BK-5Cl-NM-AMT, hydrochloride]    > 10 µM
3) CNC(C)C(=O)c1c[nH]c2ccc(Br)cc12 (stereo not drawn) [BK-5Br-NM-AMT, hydrochloride]    > 10 µM

---

biological target: Cholecystokinin Receptor A (CCKAR) (Homo sapiens, UniProt P32238); experiment: Calcium flux assay, CCKAR
Sequence (P32238 whole entry): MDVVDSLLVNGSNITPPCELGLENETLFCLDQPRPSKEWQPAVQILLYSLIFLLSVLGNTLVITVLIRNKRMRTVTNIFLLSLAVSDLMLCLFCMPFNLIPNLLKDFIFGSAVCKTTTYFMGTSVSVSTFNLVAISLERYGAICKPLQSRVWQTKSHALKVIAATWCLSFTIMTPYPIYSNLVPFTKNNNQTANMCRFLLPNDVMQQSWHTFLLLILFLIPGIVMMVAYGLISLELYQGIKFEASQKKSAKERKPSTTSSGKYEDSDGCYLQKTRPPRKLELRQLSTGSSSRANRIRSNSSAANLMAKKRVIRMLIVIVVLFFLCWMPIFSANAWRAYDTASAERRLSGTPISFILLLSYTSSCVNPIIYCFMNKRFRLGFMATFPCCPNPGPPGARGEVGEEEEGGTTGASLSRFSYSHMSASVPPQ
pEC50: −log10 of the molar value. Structures can show the parent of a compound that is named as a salt.
PROPERTY_MEASURED: pEC50

1. CNC(C)C(=O)c1c[nH]c2ccc(Cl)cc12 (stereo not drawn) [BK-5Cl-NM-AMT, hydrochloride]    < 5.00
2. CNC(C)C(=O)c1c[nH]c2ccc(F)cc12 (stereo not drawn) [BK-5F-NM-AMT, hydrochloride]    < 5.00
3. CNC(C)C(=O)c1c[nH]c2ccc(Br)cc12 (stereo not drawn) [BK-5Br-NM-AMT, hydrochloride]    < 5.00

---

Readings of EC50 for the listed compounds
biological target: human SERT (Homo sapiens, UniProt P31645); test: hSERT release of [3H]serotonin, CHO cells
Sequence (P31645 whole entry): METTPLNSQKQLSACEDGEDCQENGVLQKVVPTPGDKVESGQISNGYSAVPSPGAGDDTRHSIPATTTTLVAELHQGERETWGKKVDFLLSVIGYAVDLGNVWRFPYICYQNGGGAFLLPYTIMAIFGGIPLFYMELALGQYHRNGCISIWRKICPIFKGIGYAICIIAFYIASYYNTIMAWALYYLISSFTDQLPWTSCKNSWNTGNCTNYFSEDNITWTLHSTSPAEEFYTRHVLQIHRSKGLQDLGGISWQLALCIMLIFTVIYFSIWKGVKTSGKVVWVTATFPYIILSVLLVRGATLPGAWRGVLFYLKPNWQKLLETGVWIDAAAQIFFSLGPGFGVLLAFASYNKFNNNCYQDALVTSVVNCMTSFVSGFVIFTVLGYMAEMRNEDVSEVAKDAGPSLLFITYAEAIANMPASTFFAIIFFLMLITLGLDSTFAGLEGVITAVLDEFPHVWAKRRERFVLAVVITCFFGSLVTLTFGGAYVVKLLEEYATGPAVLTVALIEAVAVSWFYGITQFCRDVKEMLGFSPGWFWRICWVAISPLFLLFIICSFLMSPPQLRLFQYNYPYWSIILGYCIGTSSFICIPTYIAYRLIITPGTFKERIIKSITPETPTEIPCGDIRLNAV
PROPERTY_MEASURED: EC50 (nM)

1) CNC(C)C(=O)c1c[nH]c2ccc(Br)cc12 (stereo not drawn) [drawing 187]    295
2) CNC(C)C(=O)c1c[nH]c2ccc(F)cc12 (stereo not drawn) [drawing 186]    190
3) CNC(C)C(=O)c1c[nH]c2ccc(Cl)cc12 (stereo not drawn) [drawing 188]    200

---

target: CAMP-specific 3′,5′-cyclic phospho-diesterase (PDE4D2) (Homo sapiens)
Sequence (Q08499 303-809 limits assumed): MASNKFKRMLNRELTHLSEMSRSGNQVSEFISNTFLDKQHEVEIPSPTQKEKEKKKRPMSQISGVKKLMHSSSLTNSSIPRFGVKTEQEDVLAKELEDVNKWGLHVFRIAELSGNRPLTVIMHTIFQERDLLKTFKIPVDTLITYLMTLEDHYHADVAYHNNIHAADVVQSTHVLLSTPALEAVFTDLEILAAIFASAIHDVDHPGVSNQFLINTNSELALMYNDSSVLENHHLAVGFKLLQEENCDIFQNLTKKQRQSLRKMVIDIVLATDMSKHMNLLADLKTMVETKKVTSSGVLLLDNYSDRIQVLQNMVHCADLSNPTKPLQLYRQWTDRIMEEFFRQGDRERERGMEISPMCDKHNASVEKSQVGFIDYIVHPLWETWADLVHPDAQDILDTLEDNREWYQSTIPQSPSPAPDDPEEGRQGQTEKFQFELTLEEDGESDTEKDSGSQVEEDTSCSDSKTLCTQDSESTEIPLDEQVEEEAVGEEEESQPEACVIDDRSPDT
pIC50: −log10 of the molar value. Where a name gives a salt, the structure may show the parent alone.
Readings of pIC50 for the listed compounds
PROPERTY_MEASURED: pIC50

1. CNC(C)C(=O)c1c[nH]c2ccc(F)cc12 (stereo not drawn) [BK-5F-NM-AMT, hydrochloride]    < 5.00
2. CNC(C)C(=O)c1c[nH]c2ccc(Cl)cc12 (stereo not drawn) [BK-5Cl-NM-AMT, hydrochloride]    < 5.00
3. CNC(C)C(=O)c1c[nH]c2ccc(Br)cc12 (stereo not drawn) [BK-5Br-NM-AMT, hydrochloride]    < 5.00

---

target: N-methyl-D-aspartate (NMDA) Glutamate Receptor 1A/2B (NMDAR (1A/2B)) (Homo sapiens, UniProt Q05586+Q13224); experiment: Ion channel assay, NMDAR (1A/2B)
Sequence (Q13224 27-1484, other chains not shown): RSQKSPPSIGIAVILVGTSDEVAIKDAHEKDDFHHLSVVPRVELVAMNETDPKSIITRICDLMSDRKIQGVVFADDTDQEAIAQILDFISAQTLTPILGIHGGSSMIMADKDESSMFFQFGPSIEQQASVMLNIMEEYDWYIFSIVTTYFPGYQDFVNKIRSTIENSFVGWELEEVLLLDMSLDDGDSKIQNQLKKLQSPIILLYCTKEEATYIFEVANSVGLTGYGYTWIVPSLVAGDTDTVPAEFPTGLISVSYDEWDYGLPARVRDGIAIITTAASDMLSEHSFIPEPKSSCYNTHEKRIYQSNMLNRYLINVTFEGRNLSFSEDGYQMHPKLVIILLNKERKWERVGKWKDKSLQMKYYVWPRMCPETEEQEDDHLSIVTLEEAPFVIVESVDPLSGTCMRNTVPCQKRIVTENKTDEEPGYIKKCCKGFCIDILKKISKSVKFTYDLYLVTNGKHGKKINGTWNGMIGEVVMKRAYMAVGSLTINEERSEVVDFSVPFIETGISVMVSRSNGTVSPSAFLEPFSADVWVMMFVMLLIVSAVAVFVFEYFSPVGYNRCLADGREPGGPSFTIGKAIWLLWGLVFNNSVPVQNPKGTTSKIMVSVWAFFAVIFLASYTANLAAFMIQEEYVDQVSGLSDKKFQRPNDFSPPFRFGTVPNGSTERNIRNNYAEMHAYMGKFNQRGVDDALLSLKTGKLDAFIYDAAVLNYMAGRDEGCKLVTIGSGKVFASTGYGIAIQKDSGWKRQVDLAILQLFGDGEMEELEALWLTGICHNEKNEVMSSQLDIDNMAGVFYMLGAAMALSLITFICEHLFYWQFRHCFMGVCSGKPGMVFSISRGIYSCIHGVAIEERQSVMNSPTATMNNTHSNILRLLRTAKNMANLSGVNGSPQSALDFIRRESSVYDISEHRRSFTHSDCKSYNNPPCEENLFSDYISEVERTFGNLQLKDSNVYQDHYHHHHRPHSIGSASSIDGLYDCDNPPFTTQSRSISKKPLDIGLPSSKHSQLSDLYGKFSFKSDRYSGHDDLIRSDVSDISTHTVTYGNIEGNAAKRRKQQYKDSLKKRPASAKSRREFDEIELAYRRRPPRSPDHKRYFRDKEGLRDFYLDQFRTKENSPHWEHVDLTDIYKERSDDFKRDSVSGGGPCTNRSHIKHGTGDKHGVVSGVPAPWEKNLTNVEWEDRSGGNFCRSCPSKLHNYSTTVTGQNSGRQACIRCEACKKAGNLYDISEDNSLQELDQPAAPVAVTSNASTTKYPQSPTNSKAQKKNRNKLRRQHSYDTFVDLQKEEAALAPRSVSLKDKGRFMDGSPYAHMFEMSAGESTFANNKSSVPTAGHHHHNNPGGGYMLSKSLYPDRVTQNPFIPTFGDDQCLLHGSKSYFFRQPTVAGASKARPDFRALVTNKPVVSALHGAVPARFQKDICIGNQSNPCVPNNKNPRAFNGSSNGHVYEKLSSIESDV
pIC50: −log10 of the molar value. Counter-ions that a name gives are not always drawn.
PROPERTY_MEASURED: pIC50

1) CNC(C)C(=O)c1c[nH]c2ccc(F)cc12 (stereo not drawn) [BK-5F-NM-AMT, hydrochloride]    < 5.00
2) CNC(C)C(=O)c1c[nH]c2ccc(Br)cc12 (stereo not drawn) [BK-5Br-NM-AMT, hydrochloride]    < 5.00
3) CNC(C)C(=O)c1c[nH]c2ccc(Cl)cc12 (stereo not drawn) [BK-5Cl-NM-AMT, hydrochloride]    < 5.00

---

molecular target: Nicotinic acetylcholine Receptor α4 β2 (nAChR(a4/b2)) (Homo sapiens, UniProt P17787+P43681); construct: expressed in transfected cells; assay: cell-based
Sequence (P43681 29-627 limits assumed): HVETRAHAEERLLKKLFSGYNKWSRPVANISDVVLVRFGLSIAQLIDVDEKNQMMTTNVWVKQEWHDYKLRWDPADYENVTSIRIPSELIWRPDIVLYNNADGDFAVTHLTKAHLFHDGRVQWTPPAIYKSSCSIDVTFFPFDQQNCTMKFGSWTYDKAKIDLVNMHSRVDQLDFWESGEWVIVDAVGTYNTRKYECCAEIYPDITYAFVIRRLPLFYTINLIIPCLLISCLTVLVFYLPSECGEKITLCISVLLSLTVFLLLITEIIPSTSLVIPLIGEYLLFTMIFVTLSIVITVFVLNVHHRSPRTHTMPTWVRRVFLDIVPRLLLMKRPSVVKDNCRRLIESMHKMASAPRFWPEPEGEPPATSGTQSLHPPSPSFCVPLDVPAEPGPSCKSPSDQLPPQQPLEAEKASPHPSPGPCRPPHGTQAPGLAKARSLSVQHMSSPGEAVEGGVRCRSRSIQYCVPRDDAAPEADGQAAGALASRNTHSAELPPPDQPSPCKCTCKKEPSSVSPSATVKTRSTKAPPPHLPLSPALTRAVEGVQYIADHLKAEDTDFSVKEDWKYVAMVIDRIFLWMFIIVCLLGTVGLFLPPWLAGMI
Sequence (P17787 26-502): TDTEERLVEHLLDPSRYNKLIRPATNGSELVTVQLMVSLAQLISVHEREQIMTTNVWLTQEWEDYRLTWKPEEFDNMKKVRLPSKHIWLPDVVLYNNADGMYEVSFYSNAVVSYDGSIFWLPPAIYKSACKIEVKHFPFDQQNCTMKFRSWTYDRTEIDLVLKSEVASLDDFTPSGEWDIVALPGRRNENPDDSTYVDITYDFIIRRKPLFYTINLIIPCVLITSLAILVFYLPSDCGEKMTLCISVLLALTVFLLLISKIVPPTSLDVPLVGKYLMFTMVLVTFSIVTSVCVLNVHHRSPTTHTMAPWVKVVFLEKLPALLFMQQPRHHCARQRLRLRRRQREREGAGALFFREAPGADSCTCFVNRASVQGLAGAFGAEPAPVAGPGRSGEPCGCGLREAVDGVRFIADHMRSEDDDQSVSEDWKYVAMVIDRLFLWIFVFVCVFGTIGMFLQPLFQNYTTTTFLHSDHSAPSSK
Structures can show the parent of a compound that is named as a salt.
Readings of IC50 for the listed molecules
PROPERTY_MEASURED: IC50

1. CNC(C)C(=O)c1c[nH]c2ccc(F)cc12 (stereo not drawn) [BK-5F-NM-AMT, hydrochloride]    > 10 µM
2. CNC(C)C(=O)c1c[nH]c2ccc(Cl)cc12 (stereo not drawn) [BK-5Cl-NM-AMT, hydrochloride]    > 10 µM
3. CNC(C)C(=O)c1c[nH]c2ccc(Br)cc12 (stereo not drawn) [BK-5Br-NM-AMT, hydrochloride]    > 10 µM

---

molecular target: Dopamine Receptor D1 (DRD1) (Homo sapiens, UniProt P21728); assay: cAMP assay, DRD1
Sequence (P21728 whole entry): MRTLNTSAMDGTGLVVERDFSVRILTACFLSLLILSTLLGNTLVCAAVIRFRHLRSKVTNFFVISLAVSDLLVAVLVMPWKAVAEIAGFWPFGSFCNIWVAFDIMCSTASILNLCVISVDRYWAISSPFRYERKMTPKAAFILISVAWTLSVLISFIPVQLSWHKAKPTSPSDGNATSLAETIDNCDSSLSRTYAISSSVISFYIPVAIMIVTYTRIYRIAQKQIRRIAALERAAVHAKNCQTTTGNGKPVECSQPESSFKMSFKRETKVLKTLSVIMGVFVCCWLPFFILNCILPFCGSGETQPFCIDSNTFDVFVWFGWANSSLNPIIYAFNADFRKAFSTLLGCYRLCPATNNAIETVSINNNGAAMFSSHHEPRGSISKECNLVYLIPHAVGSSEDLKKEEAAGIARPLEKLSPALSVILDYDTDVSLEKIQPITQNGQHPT
pIC50: −log10 of the molar value. Structures can show the parent of a compound that is named as a salt.
PROPERTY_MEASURED: pIC50

1) CNC(C)C(=O)c1c[nH]c2ccc(Cl)cc12 (stereo not drawn) [BK-5Cl-NM-AMT, hydrochloride]    < 5.00
2) CNC(C)C(=O)c1c[nH]c2ccc(F)cc12 (stereo not drawn) [BK-5F-NM-AMT, hydrochloride]    < 5.00
3) CNC(C)C(=O)c1c[nH]c2ccc(Br)cc12 (stereo not drawn) [BK-5Br-NM-AMT, hydrochloride]    5.01

---

Biological target: Muscarinic acetylcholine Receptor M1 (CHRM1) (Homo sapiens, UniProt P11229)
Sequence (P11229 1-460): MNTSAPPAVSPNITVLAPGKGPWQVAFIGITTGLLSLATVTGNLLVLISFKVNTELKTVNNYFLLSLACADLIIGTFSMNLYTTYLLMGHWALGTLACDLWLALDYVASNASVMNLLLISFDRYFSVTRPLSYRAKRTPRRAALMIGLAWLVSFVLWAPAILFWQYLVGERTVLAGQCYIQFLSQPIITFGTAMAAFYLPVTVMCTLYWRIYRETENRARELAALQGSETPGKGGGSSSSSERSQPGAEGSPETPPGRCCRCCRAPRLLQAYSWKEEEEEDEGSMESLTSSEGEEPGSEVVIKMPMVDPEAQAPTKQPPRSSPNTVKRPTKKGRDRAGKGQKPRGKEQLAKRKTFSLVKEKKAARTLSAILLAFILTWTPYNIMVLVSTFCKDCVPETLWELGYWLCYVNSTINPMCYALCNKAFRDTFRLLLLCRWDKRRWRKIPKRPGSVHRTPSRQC
Assay: cell-based
Structures can show the parent of a compound that is named as a salt.
Readings of EC50 for the listed compounds
PROPERTY_MEASURED: EC50

1. CNC(C)C(=O)c1c[nH]c2ccc(Br)cc12 (stereo not drawn) [BK-5Br-NM-AMT, hydrochloride]    > 10 µM
2. CNC(C)C(=O)c1c[nH]c2ccc(F)cc12 (stereo not drawn) [BK-5F-NM-AMT, hydrochloride]    > 10 µM
3. CNC(C)C(=O)c1c[nH]c2ccc(Cl)cc12 (stereo not drawn) [BK-5Cl-NM-AMT, hydrochloride]    > 10 µM

---

Readings of IC50 for the listed compounds
biological target: Histamine Receptor H2 (HRH2) (Homo sapiens, UniProt P25021); test: cAMP assay, HRH2; format: cell-based
Sequence (P25021 whole entry): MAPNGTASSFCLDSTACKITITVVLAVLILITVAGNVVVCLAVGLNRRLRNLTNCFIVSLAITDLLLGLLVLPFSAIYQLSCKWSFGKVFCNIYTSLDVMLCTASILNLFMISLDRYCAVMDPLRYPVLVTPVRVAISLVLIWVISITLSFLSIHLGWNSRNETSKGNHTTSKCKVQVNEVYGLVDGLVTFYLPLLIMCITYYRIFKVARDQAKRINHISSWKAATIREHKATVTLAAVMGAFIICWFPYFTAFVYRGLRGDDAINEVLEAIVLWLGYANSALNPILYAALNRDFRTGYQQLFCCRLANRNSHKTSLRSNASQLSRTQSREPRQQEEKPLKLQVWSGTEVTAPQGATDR
Where a name gives a salt, the structure may show the parent alone.
PROPERTY_MEASURED: IC50

1. CNC(C)C(=O)c1c[nH]c2ccc(Br)cc12 (stereo not drawn) [BK-5Br-NM-AMT, hydrochloride]    > 10 µM
2. CNC(C)C(=O)c1c[nH]c2ccc(F)cc12 (stereo not drawn) [BK-5F-NM-AMT, hydrochloride]    > 10 µM
3. CNC(C)C(=O)c1c[nH]c2ccc(Cl)cc12 (stereo not drawn) [BK-5Cl-NM-AMT, hydrochloride]    > 10 µM

---

target: Histamine Receptor H2 (HRH2) (Homo sapiens); assay: cAMP assay, HRH2
pEC50: −log10 of the molar value. Counter-ions that a name gives are not always drawn.
Readings of pEC50 for the listed molecules
PROPERTY_MEASURED: pEC50

1. CNC(C)C(=O)c1c[nH]c2ccc(F)cc12 (stereo not drawn) [BK-5F-NM-AMT, hydrochloride]    < 5.00
2. CNC(C)C(=O)c1c[nH]c2ccc(Br)cc12 (stereo not drawn) [BK-5Br-NM-AMT, hydrochloride]    < 5.00
3. CNC(C)C(=O)c1c[nH]c2ccc(Cl)cc12 (stereo not drawn) [BK-5Cl-NM-AMT, hydrochloride]    < 5.00

---

target: Nuclear Hormone Androgen Receptor (AR) (Homo sapiens); assay: NHR Nuclear Translocation assay, AR
Structures can show the parent of a compound that is named as a salt.
PROPERTY_MEASURED: EC50

1) CNC(C)C(=O)c1c[nH]c2ccc(Br)cc12 (stereo not drawn) [BK-5Br-NM-AMT, hydrochloride]    > 10 µM
2) CNC(C)C(=O)c1c[nH]c2ccc(F)cc12 (stereo not drawn) [BK-5F-NM-AMT, hydrochloride]    > 10 µM
3) CNC(C)C(=O)c1c[nH]c2ccc(Cl)cc12 (stereo not drawn) [BK-5Cl-NM-AMT, hydrochloride]    > 10 µM

---

Readings of IC50 for the listed molecules
Molecular target: Nuclear Hormone Androgen Receptor (AR) (Homo sapiens)
Sequence (P10275 1-920): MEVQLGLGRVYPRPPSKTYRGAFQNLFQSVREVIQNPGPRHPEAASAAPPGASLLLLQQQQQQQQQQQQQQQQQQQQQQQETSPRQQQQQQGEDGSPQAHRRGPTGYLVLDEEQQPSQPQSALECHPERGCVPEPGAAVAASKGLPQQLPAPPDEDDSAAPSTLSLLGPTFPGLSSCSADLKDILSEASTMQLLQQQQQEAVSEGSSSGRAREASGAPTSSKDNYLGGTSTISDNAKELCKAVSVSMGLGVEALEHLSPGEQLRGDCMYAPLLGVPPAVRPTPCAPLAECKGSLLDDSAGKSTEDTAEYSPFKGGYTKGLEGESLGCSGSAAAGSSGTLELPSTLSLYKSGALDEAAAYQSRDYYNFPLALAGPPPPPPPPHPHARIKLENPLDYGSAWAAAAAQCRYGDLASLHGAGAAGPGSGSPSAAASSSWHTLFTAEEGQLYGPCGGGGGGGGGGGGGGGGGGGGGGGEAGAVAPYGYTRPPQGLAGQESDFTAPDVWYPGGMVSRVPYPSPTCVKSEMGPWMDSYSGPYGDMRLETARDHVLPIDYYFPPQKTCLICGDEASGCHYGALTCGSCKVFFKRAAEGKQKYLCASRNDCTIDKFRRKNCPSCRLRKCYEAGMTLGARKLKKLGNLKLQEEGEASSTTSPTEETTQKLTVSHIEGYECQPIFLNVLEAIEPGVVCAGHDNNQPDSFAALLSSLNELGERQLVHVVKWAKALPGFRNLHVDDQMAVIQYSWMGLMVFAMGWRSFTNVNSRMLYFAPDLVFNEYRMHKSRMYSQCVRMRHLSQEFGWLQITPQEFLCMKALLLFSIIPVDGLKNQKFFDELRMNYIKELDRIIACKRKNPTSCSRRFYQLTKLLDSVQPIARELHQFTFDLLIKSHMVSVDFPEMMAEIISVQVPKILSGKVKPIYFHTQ
Test: NHR Nuclear Translocation assay, AR
Where a name gives a salt, the structure may show the parent alone.
PROPERTY_MEASURED: IC50

1. CNC(C)C(=O)c1c[nH]c2ccc(F)cc12 (stereo not drawn) [BK-5F-NM-AMT, hydrochloride]    > 10 µM
2. CNC(C)C(=O)c1c[nH]c2ccc(Cl)cc12 (stereo not drawn) [BK-5Cl-NM-AMT, hydrochloride]    > 10 µM
3. CNC(C)C(=O)c1c[nH]c2ccc(Br)cc12 (stereo not drawn) [BK-5Br-NM-AMT, hydrochloride]    > 10 µM
